- Experimental target: recombinant human Meningioma Expressed Antigen 5 (MGEA5), also referred to as O-GlcNAcase (OGA) (Homo sapiens, UniProt O60502)
- Construct: Full length OGA enzyme was purchased at OriGene (cat #TP322411); purchased OriGene TP322411
- Test: OGA biochemical assay (inhibition of FM-GlcNAc hydrolysis, fluorescence)
- Description: The assay is based on the inhibition of the hydrolysis of fluorescein mono-B-D-N-Acetyl-Glucosamine (FM-GcNAc) (Mariappa et al. 2015, Biochem J470:255) by the recombinant human Meningioma Expressed Antigen 5 (MGEA5), also referred to as O-GlcNAcase (OGA). […] The fluorescence of the latter can be measured at excitation wavelength 485 nm and emission wavelength 538 nm. An increase in enzyme activity results in anincrease in fluorescence signal. […]
Observation type: Enzymatic Emax (%)
// note: answer is a bare numeric in %

Query :: Enzymatic Emax (%) for Cc1cc(OC2CCN(C(C)c3ccc4c(n3)OCCO4)CC2)cc(C)n1 (single isomer, unassigned) [Compound 2] ?
Result :: 29

Query :: Another compound to check: COc1cc(OC2CCN(C(C)c3ccc4c(n3)OCCO4)CC2)cc(C)n1 (single isomer, unassigned) [Compound 54]
Result :: 100

Query :: Can you check Cc1cc(OC2CCN(C(C)c3ccc4c(n3)OCCO4)CC2)cc(C)n1 (single isomer, unassigned) [Compound 3] next?
Result :: 103

Query :: Here is the next compound: COc1cc(OC2CCN(C(C)c3ccc4c(n3)OCCO4)CC2)cc(C)n1 (single isomer, unassigned) [Compound 53]
Result :: 55

Query :: Could you do the same for Cc1cc(OC2CCN(C(C)c3ccc4c(n3)OCCO4)CC2)nc(C)n1 (single isomer, unassigned) [Compound 11] , please?
Result :: 84

Query :: Follow-up item: COc1cc(OC2CCN(C(C)c3ccc4sc(C)nc4n3)CC2)cc(C)n1 (single isomer, unassigned) [Compound 23]
Result :: 59

Query :: What do you have for COc1cc(OC2CCN(C(C)c3ccc4sc(C)nc4n3)CC2)cc(C)n1 (single isomer, unassigned) [Compound 24] ?
Result :: 98

---

Counter-ions that a name gives are not always drawn.
Label rule, in plain words: melting point of 200 °C and up is Fulfilled, under 200 °C is Not fulfilled.

Query :: Reported melting point reaches at least 200 °C for Cc1ncc(COC2CCN([C@@H](C)c3nc4c(cc3F)OCCO4)CC2)cn1 (single isomer, unassigned) ?
Result :: Not fulfilled

Query :: Also Cc1ccc(OC2CCN(C(C)c3ccc4c(c3)OCO4)CC2)cn1.Cl (stereo not shown) , if possible.
Result :: Fulfilled

Query :: Another molecule to look at: Cc1nc(OC2CCN(C(C)c3nc4c(cc3F)OCCO4)CC2)ccc1C#N (stereo not shown)
Result :: Not fulfilled

Query :: Same again, this time with Cc1cnc(OC2CCN(C(C)c3ccc4c(n3)OCCO4)CC2)cn1 (stereo not shown)
Result :: Not fulfilled

Query :: Let us now turn to Cc1cc(OC2CCN(C(C)c3ccc4c(n3)OCCO4)CC2)cc(C2CC2)n1 (stereo not shown) (as salt: HCl)
Result :: Not fulfilled

Query :: Please do the same for Cc1cc(NC2CCN(C(C)c3nc4c(cc3F)OCCO4)CC2)cc(C)n1 (stereo not shown) as well.
Result :: Fulfilled

Query :: Proceed to Cc1cc(OC2CCN([C@H](C)c3nc4c(cc3F)OCCO4)CC2)cc(C)n1 (single isomer, unassigned) (as salt: HCl)
Result :: Fulfilled

---

- Experimental target: recombinant human Meningioma Expressed Antigen 5 (MGEA5), also referred to as O-GlcNAcase (OGA) (Homo sapiens)
- Construct: Full length OGA enzyme was purchased at OriGene (cat #TP322411); purchased OriGene TP322411
- Sequence (O60502 1-916): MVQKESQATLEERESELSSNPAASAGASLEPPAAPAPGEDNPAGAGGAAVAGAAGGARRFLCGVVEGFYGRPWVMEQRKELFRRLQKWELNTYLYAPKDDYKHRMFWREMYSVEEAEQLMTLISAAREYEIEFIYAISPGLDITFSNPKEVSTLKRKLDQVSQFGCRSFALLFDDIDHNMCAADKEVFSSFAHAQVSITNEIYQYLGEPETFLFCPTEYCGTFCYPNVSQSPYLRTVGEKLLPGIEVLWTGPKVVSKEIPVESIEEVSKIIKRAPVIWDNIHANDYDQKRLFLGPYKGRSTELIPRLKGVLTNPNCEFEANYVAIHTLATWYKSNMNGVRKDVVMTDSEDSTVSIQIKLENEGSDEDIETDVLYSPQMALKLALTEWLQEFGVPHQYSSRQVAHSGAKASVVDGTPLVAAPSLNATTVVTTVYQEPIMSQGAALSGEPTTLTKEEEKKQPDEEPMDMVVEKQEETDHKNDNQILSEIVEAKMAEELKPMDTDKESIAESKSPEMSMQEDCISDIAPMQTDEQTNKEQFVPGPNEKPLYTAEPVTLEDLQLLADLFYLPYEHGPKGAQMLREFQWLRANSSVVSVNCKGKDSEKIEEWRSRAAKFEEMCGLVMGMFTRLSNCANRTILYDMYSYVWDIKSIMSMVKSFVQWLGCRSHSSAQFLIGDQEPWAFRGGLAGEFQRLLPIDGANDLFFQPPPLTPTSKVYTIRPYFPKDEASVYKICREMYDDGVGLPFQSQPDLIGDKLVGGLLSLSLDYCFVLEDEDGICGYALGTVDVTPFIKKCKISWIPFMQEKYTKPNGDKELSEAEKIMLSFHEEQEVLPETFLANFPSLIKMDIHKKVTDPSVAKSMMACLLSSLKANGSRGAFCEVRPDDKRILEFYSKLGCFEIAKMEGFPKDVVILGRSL
- Test: OGA biochemical assay (inhibition of FM-GlcNAc hydrolysis, fluorescence)
- Test context: read-out: Enzymatic Emax (%)
Give Emax for every item shown.
State just the number; it will be interpreted in %.

Query :: Any idea what Emax was measured for Cc1cc(OC2CCN(C(C)c3ccc4c(n3)OCCO4)CC2)cc(C2CC2)n1 (stereo not shown) ?
Result :: 96

Query :: Please do the same for Cc1cc(OC2CCN(C(C)c3ccc4sc(C)nc4n3)CC2)cc(C)n1 (stereo not shown) as well.
Result :: 100

Query :: Try the molecule CC(c1ccc2c(n1)OCCO2)N1CCC(Oc2cnc(C(F)(F)F)cn2)CC1 (stereo not shown)
Result :: 97

Query :: Repeat for the following molecule: Cc1cnc(C)c(OC2CCN(C(C)c3nc4c(cc3F)OCCO4)CC2)n1 (stereo not shown)
Result :: 97

Query :: Another: Cc1cc(OC2CCN([C@@H](C)c3nc4nc(C)sc4cc3F)CC2)cc(C)n1 (single isomer, unassigned)
Result :: 101

Query :: Quick one: Cc1ccc(COC2CCN(C(C)c3nc4c(cc3F)OCCO4)CC2)cn1 (stereo not shown)
Result :: 100

Query :: Same lookup for COc1cc(OC2CCN(C(C)c3ccc4c(n3)OCCO4)CC2)cc(C)n1 (stereo not shown) , please.
Result :: 100

Query :: Now try CC(c1ccc2c(n1)OCCO2)N1CCC(Oc2ccnc(C#N)c2)CC1 (stereo not shown) .
Result :: 100

Query :: Request: Cc1cc(C#N)cnc1OC1CCN(C(C)c2ccc3c(n2)OCCO3)CC1 (stereo not shown)
Result :: 94

Query :: Next molecule: Cc1cc(OC2CCN(C(C)c3cc4nc(C)sc4cc3F)CC2)cc(C)n1 (stereo not shown)
Result :: 100

Query :: Here is the next molecule: COc1cc(OC2CCN(C(C)c3ccc4c(n3)OCCO4)CC2)ccn1 (stereo not shown)
Result :: 101

Query :: // query: Cc1cc(OC2CCN(C(C)c3ccc4c(c3)OCCO4)CC2)cc(C)n1 (stereo not shown)
Result :: 96

Query :: Field entry: Cc1ncc(OC2CCN(C(C)c3ccc4c(n3)OCCO4)CC2)cc1F (stereo not shown)
Result :: 93

Query :: Next up: Cc1cc(NC2CCN(C(C)c3ccc4c(n3)OCCO4)CC2)cc(C)n1 (stereo not shown)
Result :: 99

Query :: Cool, now Cc1cc(OC2CCN([C@H](C)c3nc4c(cc3F)OCCO4)CC2)nc(C)n1 (single isomer, unassigned)
Result :: 97

Query :: What about Cc1cc(OC2CCN(C(C)c3nc4nc(C)sc4cc3F)CC2)cc(C)n1 (stereo not shown) ?
Result :: 100

Query :: Another molecule to look at: Cc1cncc(OC2CCN(C(C)c3nc4c(cc3F)OCCO4)CC2)n1 (stereo not shown)
Result :: 99

Query :: Next molecule up: Cc1ccc(OC2CCN(C(C)c3nc4c(cc3F)OCCO4)CC2)nc1C (stereo not shown)
Result :: 102

Query :: Next entry: Cc1cc(OC2CCN(C(C)c3ccc4c(n3)OCCO4)CC2)cc(C(F)(F)F)n1 (stereo not shown)
Result :: 100

Query :: Cool, now Cc1ccc(OC2CCN(C(C)c3ccc4c(c3)OCO4)CC2)cn1.Cl (stereo not shown)
Result :: 96

Query :: What do we get for COc1cnccc1OC1CCN(C(C)c2ccc3c(n2)OCCO3)CC1 (stereo not shown) ?
Result :: 94

Query :: Moving on to the next molecule: Cc1cc(OC2CCN(C(C)c3ccc4c(n3)OCCO4)CC2)c(F)c(C)n1 (stereo not shown)
Result :: 96

Query :: Now try Cc1cc(CC2CCN(C(C)c3ccc4c(n3)OCCO4)CC2)cc(C)n1 (stereo not shown) .
Result :: 98

Query :: Also Cc1cc(COC2CCN(C(C)c3nc4c(cc3F)OCCO4)CC2)cc(C)n1 (stereo not shown) ?
Result :: 94

Query :: Try the molecule Cc1ncc(COC2CCN([C@@H](C)c3nc4c(cc3F)OCCO4)CC2)cn1 (single isomer, unassigned)
Result :: 96

Query :: Can you handle CC(c1ccc2c(n1)OCCO2)N1CCC(Oc2cnc(Cl)nc2)CC1 (stereo not shown) next?
Result :: 102

Query :: Likewise for Cc1cc(OC2CCN(C(C)c3nc4c(cc3F)OCCO4)CC2)nc(C)n1 (stereo not shown) ?
Result :: 99

Query :: And what about the molecule Cc1cc(OC2CCN([C@@H](C)c3nc4c(cc3F)CCO4)CC2)cc(C)n1 (single isomer, unassigned) ?
Result :: 86

Query :: One more molecule: Cc1cc(OC2CCN(C(C)c3cnc4c(c3)OCCO4)CC2)nc(C)n1 (stereo not shown)
Result :: 96

Query :: Also need Cc1cc(OC2CCN(C(C)c3nc4c(cc3F)OCCO4)CC2)ncc1C#N (stereo not shown) , thanks.
Result :: 96

Query :: And the next one, COc1ccc(OC2CCN(C(C)c3ccc4c(n3)OCCO4)CC2)nc1 (stereo not shown) ?
Result :: 98
